assay: Protein binding and blood-to-plasma partitioning; assay type: in vitro ADME; details: plasma, protein binding, used for MIC correction
endpoint: fraction unbound
// no unit string in output, number only

stdin: Given `CS(=O)(=O)c1ccc(-c2cnc(N)c(-c3ccc(C(F)(F)F)nc3)c2)cc1` , state its recorded fraction unbound.
stdout: 0.139

----------
# pIC50 annotations
test system: P. falciparum late-stage gametocytes (stages IV and V); experiment: Gametocyte viability assay; assay type: cell-based; conditions: Plasmodium falciparum, read-out: IC50, gametocyte viability (pLDH)
Scale note: pIC50 = -log10(concentration in M).

# molecule, measurementTarget, readoutValue
rows = [
    ("C[C@H]1[C@@H](O)O[C@@H]2O[C@@]3(C)CC[C@H]4[C@H](C)CC[C@@H]1[C@@]24OO3 [dihydroartemisinin, reference compound]", "P. falciparum late-stage gametocytes (stages IV and V)", 7.92),
]

# ---- query molecule ----
stdin: Given `CS(=O)(=O)c1ccc(-c2cnc(N)c(-c3ccc(C(F)(F)F)nc3)c2)cc1` , state its recorded pIC50.
stdout: 6.55
